target: CtermHisTag-mEGFR Triple Mutant - C797S, L858R, T790M (Homo sapiens, UniProt P00533, C797S/L858R/T790M); assay: TR-FRET probe displacement assay, EGFR triple mutant; conditions: T790M 1.25 nM, probe 100 nM, 30 mins room temperature
Sequence (P00533 25-1210 T790M/C797S/L858R): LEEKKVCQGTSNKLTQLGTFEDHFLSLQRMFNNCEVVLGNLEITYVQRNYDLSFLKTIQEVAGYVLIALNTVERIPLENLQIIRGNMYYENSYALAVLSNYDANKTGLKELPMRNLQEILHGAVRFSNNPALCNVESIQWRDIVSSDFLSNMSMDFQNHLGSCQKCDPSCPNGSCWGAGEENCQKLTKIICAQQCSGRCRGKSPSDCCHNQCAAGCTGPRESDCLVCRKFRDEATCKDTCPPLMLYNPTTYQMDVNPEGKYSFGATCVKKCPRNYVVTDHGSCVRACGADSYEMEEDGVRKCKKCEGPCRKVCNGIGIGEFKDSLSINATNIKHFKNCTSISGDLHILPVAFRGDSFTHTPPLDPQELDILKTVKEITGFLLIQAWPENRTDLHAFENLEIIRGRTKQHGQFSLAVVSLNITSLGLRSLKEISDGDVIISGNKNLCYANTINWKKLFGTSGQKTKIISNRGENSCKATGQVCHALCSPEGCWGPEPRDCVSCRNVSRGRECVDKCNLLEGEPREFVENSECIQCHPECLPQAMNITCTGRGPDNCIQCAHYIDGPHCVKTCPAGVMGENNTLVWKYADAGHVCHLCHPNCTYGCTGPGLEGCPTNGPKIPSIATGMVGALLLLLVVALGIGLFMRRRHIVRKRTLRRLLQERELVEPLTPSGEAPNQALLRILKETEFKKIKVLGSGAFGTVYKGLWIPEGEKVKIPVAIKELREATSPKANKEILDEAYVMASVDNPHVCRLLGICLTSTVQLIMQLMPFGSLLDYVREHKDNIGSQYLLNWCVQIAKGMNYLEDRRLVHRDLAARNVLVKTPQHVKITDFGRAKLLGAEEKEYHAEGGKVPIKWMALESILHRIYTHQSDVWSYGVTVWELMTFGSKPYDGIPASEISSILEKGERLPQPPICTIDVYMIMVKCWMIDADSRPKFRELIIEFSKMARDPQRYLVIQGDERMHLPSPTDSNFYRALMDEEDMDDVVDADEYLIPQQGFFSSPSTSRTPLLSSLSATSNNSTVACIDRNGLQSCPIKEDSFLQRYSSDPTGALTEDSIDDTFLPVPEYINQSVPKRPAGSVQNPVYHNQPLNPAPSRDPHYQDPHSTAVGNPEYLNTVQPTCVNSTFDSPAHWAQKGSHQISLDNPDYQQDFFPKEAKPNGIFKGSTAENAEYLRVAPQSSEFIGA
pIC50: −log10 of the molar value.
observed_property: pIC50

Using the record for C#Cc1cc(N2C(=O)N(C)CC23CCCC3)nc2nc(Nc3ccc(S(=O)(=O)N(C)CCN(C)C)cc3)ncc12 [Example 110] , report its pIC50.
6.00 to 7.00

Next:
Quick check: pIC50 of C#Cc1cc(NC(=O)NC2CCCC2)nc2nc(Nc3ccc(OCCN(C)C)cc3)ncc12 [Example 79] ?
> 7.70

Another compound to look at: C#Cc1cc(NC(=O)NCC2CCCO2)nc2nc(Nc3ccc(N4CCN(C)CC4)cc3)ncc12 (stereo not drawn) [Example 50]
7.00 to 7.70

Same question for C#Cc1cc(NC(=O)NC2CCCC2)nc2nc(Nc3ccc(S(=O)(=O)N(C)C)cc3)ncc12 [Example 82] please.
> 7.70

# iterate: C#Cc1cc(N2C(=O)N(C)CC23CCCC3)nc2nc(Nc3ccc(S(C)(=O)=O)cc3)ncc12 [Example 108]
7.00 to 7.70

Can you check C#Cc1cc(OC)nc2nc(Nc3ccc(N(C)CCN(C)C)cc3)ncc12 [Example 2] next?
6.00 to 7.00

====

Overview of recorded pIC50 for various compounds
target: CtermHisTag-mEGFR Triple Mutant - C797S, L858R, T790M (Homo sapiens, UniProt P00533, C797S/L858R/T790M); assay: TR-FRET probe displacement assay, EGFR triple mutant; settings: T790M 1.25 nM, probe 100 nM, 30 mins room temperature
pIC50: −log10 of the molar value.

Example cases with answers are listed next.
Would you kindly share the measured pIC50 for C#Cc1cc(OCCCc2ccccc2)nc2nc(Nc3ccc(N4CCN(C)CC4)cc3)ncc12 [Example 22] ?
6.00 to 7.00

How about C#Cc1cc(N(C)C(=O)N(C)C2CCCC2)nc2nc(Nc3ccc(N4CCN(C)CC4)cc3)ncc12 [Example 123] ?
4.30 to 6.00

What about this compound? C#Cc1cc(N2CCOC2=O)nc2nc(Nc3ccc(N4CCN(C)CC4)cc3)ncc12 [Example 71]
> 7.70

And what about the compound C#Cc1cc(N2C(=O)NCC23CCCC3)nc2nc(Nc3ccc(N4CCOCC4)cc3)ncc12 [Example 91] ?
> 7.70

Another compound to check: C#Cc1cc(NC(=O)NC2CCC2)nc2nc(Nc3ccc(N4CCN(C)CC4)cc3)ncc12 [Example 41]
> 7.70

Next:
What pIC50 value was documented for this compound, C#Cc1cc(NC(=O)NC2CCCC2)nc2nc(Nc3cccc(N(C)[C@H]4C[C@H](CS(C)(=O)=O)C4)c3)ncc12 [Example 122] ?
> 7.70

====

Record: IC50 reported on CtermHisTag-mEGFR Wild type (Homo sapiens).
Sequence (P00533 25-1210): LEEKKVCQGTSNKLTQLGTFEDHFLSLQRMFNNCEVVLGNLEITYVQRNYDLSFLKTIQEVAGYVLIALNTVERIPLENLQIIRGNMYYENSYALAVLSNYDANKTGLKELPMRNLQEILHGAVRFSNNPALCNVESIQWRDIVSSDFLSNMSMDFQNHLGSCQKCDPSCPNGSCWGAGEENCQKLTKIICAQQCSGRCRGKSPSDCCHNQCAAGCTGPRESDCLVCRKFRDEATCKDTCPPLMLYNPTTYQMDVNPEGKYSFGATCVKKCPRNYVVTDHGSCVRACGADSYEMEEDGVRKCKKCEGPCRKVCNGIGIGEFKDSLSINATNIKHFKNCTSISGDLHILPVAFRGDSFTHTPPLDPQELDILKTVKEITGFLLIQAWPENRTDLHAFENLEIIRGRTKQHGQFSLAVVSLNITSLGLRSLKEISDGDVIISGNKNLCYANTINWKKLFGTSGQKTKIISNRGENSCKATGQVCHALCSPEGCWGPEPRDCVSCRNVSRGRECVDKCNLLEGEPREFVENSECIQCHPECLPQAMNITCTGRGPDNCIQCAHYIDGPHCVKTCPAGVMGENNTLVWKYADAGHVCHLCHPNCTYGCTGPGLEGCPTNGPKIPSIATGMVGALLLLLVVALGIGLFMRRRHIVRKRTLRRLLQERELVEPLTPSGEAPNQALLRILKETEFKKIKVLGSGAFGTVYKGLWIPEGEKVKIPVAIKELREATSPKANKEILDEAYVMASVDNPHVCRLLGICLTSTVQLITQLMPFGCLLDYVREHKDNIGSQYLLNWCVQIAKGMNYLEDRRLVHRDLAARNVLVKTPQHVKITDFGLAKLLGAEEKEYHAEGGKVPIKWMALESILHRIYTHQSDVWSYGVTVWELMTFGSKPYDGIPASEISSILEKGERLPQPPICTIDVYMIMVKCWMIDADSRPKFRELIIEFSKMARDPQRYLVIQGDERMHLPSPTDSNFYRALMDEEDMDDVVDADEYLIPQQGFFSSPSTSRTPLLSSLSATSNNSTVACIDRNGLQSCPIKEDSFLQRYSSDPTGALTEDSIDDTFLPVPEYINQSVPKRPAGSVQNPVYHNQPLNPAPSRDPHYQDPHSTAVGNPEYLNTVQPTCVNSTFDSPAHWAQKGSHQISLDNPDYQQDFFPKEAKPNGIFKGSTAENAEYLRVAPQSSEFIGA

Sample answers from the record:
For the molecule shown here, C#Cc1cc(N2C(=O)OC[C@H]2C(C)C)nc2nc(Nc3ccc(N4CCN(C)CC4)cc3)ncc12 , give the reported IC50.
> 10 µM

Quick one: C#Cc1cc(NC(=O)NCC2CCOC2)nc2nc(Nc3ccc(N4CCN(C)CC4)cc3)ncc12 (stereo not drawn)
< 1 µM

Now, please, on to the next molecule.
Fill in the blank: the reported IC50 of C#Cc1cc(N2C(=O)NCC2C(C)C)nc2nc(Nc3ccc(N4CCN(C)CC4)cc3)ncc12 (stereo not drawn) is ____.
1 to 10 µM
